Biological target: Adenosine receptor A1 (Homo sapiens) (UniProt P30542)
Sequence (P30542 whole entry): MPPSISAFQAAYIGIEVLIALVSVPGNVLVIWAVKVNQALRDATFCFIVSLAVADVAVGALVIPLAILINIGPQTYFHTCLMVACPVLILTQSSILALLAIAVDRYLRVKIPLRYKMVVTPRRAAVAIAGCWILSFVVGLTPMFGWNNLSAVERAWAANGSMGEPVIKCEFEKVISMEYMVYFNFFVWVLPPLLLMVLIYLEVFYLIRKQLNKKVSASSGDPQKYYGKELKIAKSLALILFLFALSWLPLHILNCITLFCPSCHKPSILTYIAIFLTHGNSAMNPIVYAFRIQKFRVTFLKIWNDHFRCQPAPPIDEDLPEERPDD
Test: Ability to displace the binding of [3H]DPCPX to the ligand binding site of CHO:hA1 (human Adenosine A1 receptor) at concentration of 10 uM
Answer each item with its documented inhibition.
Field: numeric (%). Do not append units.

Requested field: inhibition. Item: `COc1ccc(C(=O)c2c(N)sc3c2CCC3)c2ccccc12`
19

Again, but for `Cc1cc(C(=O)c2c(N)sc3c2CCC3)cc2ccccc12`
6

Follow-up entry: `Nc1sc2c(c1C(=O)c1ccc(Cl)c3ccccc13)CCC2`
-0

Quick one: `Cc1sc(N)c(C(=O)c2cccc3ccccc23)c1C`
-0

Hey, just so you know, these numbers are from ChEMBL document CHEMBL1145774.
